Test system: TNF-α production
Experiment: ELISA for TNF-α production by LPS stimulated human monocytes
Type: cell-based
Details: Concentration of compound which inhibited the product of TNFα by 50% of control, read-out: TNFαIC50
Procedure: Peripheral blood mononuclear cells were isolated from normal human blood on Hypaque-Ficoll density gradients. A portion of the isolated cells were further purified by adherence to gelatin coated flasks. 100 μl aliquots of monocytes were placed onto 96 well microtiter plates at a density of 5×10^5 cells/ml in RPMI-1640 medium containing 10% fetal bovine serum. […]
TEST_READOUT: IC50 (µM)
Provide the reading as a plain figure in µM.

Ask: Which value of IC50 has been reported for CCCn1c(=O)n(CCCC(=O)OCC)c(=O)c2c1ncn2C in the records?
Result: 5
